# test_name: Half life in CD1 mouse at 10 mg/kg, po or 2 mg/kg, iv
# Assay type: ADME, organism-based
# test_conditions: in vivo
half-life overview
Kindly provide the numeric value in h only, without the unit symbol.

INSERT INTO results (smiles_data, unit_annotation, value_measured) VALUES
  ('O=C(Nc1ccc(F)c(Cl)c1)c1ccc(F)c(S(=O)(=O)N2CCOC[C@H](O)C2)c1', 'h', 2.6);

Next molecule, half-life to be filled in.
Per the records, this molecule ( "O=C(Nc1ccc(F)c(Cl)c1)c1ccc(F)c(S(=O)(=O)N2C[C@H](O)CC[C@H](O)C2)c1" ) has half-life equal to 3.2

* * *

# test_name: AUC in CD1 mouse plasma at 5 mg/kg
# Format: ADME, organism-based
# test_conditions: in vivo
endpoint: AUC (µM·h)
Kindly provide the numeric value in µM·h only, without the unit symbol.

Per the records, this compound ( "O=C(Nc1ccc(F)c(Cl)c1)c1ccc(F)c(S(=O)(=O)N2C[C@H](O)CC[C@H](O)C2)c1" ) has AUC equal to 0.73

* * *

# test_name: Volume of distribution at steady state in Sprague-Dawley rat at 10 mg/kg, po or 2 mg/kg, iv
# Format: ADME, organism-based
# test_conditions: in vivo, read-out: Vdss
endpoint: Vd (L/kg)
Kindly provide the numeric value in L/kg only, without the unit symbol.

Per the records, this molecule ( "O=C(Nc1ccc(F)c(Cl)c1)c1ccc(F)c(S(=O)(=O)N2CCOC[C@H](O)C2)c1" ) has Vd equal to 3.3
